# System name: human vitamin D-binding protein (hDBP) (Homo sapiens, UniProt P02774)
# Sequence (P02774 17-474): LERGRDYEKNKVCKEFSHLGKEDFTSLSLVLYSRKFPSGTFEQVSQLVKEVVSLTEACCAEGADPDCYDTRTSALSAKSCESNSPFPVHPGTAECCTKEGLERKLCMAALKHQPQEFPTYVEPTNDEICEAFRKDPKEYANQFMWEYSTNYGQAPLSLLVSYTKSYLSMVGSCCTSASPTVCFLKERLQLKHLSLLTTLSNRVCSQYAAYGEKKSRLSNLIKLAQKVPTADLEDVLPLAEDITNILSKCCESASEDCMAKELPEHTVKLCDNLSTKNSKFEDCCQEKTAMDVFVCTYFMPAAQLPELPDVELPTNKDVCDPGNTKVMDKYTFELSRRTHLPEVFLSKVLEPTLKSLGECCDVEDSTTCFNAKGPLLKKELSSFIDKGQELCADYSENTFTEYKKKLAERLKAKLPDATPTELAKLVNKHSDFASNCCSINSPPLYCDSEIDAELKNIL
# Assay name: Relative Competitive Index assay, vitamin D-binding protein
# Condition details: RCI of 1α,25(OH)2 D3 set to 100; 4° C., pH 7.4
Record form. Attribute: Vit D Binding Protein (RCI). Fill in for each entry.
Give bare numbers.

{"columns": ["Molecule", "Vit D Binding Protein (RCI)"],
 "data": [
  ["CC1=C(C=C=C2CCC[C@]3(C)[C@@H]([C@H](C)CCCC(C)(C)O)CC[C@@H]23)C[C@@H](O)C[C@@H]1O [JW]", 700]
]}

For each entry beneath this line, provide reported Vit D Binding Protein (RCI).
1. C=C1/C(=C\C=C2/CCC[C@]3(C)[C@@H]([C@H](C)Cc4ccc(O)cc4)CC[C@@H]23)C[C@@H](O)C[C@@H]1O [DF]
2. C=C1/C(=C\C=C2/CCC[C@]3(C)[C@@H]([C@H](C)C=C=CC(C)(C)O)CC[C@@H]23)C[C@@H](O)C[C@@H]1O [HR]
3. CC1=C(C=C=C2CCC[C@]3(C)[C@@H]([C@H](C)CCCC(C)(C)O)CC[C@@H]23)C[C@@H](O)C[C@@H]1O [JV]
4. C[C@H](CCCC(C)(C)O)[C@H]1CC[C@H]2C3=CC=C4C[C@@H](O)C[C@H](O)[C@@]4(C)[C@H]3CC[C@]12C [JO]
5. C=C1/C(=C\C=C2/CCC[C@]3(C)[C@@H]([C@H](C)Cc4cccc(C(C)(C)O)c4)CC[C@@H]23)C[C@@H](O)C[C@@H]1O [EV]

[1980, 48, 37, 2.0, 25]
